Assay: protein stability index of a GFP-peptide fusion (GPS, HEK-293T) (PSI 1-6); higher = more stable;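 also: 24-mer peptide tiles fused after GFP, lentivirally expressed, FACS-sorted into six equal bins by GFP/DsRed ratio, decoded by Illumina sequencing, PSI is the read-weighted mean bin number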
Settings: treatment: DMSO; c terminus: a fixed tail appended
PARAMETER: protein stability index
Reply with just the number.

protein stability index reading for ARRLTRFTGVITQGRNSLWLSDWV [CPXM2] : 2.43

Summary for this sequence, ARHNYNDLCPPIGRRAATALLWLS [GNAS] : protein stability index is 2.15

The sequence listed as LTRIRKWIEHSKLREINFKIVEFN [GLT8D2] shows protein stability index equal to 2.48

Entry GKSILLFGGAAAVAILAVAIGVAL [BCL2L13] ; protein stability index = 2.98

Given item PYKREEEALEERRLSRGEIPTLQR [PKD2L1] , the value recorded as its protein stability index is 4.76

Kindly note the recorded protein stability index for ILDTAGTEQFTAMRDLYMKNGQGF [RAP1B] , which is 3.29

# sequence LEASVQDDAGTSGGPSSPPSDPPA [C2CD2L] ; its protein stability index = 5.53

Kindly note the recorded protein stability index for DLISKSFQGSQGRAYLFNSVVNVG [YPEL3] , which is 2.16

Looking up EVEEADGNKQWWFGGGCDLTPTYL [CPOX] , I see its protein stability index listed as 3.43

Looking up RQSRRQSVSRFFADSGADPKGEPG [FBF1] , I found its protein stability index recorded as 5.04

Value of measured protein stability index for the entry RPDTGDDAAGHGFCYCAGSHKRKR [GMCL1] : 3.81

Measured protein stability index of QSEESDQGKYECVATNSAGTRYSA [PTPRD] : 5.23

The reported protein stability index of the sequence WDLRDQSVVRDLKGYPDGVKSIVV [TLE6] was 2.63

* * *

Experiment: protein stability index of a GFP-peptide fusion (GPS, HEK-293T) (PSI 1-6); higher = more stable
Conditions: treatment: MLN4924 1 uM, 8 h; c terminus: native
PARAMETER: protein stability index
The answer should be written as a number, with no unit following it.

GET /value?item= NIIAIAATNNLYIFQDKVNSDMH [PPP2R2C] &field=protein stability index returns 2.09

Short answer for RWLMVKIFLILIVFFIIFVVFLA [STX5] : protein stability index was 4.31

Entry RAASSQRAEEEDDDIKQLAAWAT [CHMP4C] , protein stability index reported as 5.2

Entry SSGEPVDYNVDIGIPLDGETEEL [MYOZ1] — recorded protein stability index = 5.23

Entry under test: AEAQKNMYFKTRLKCPRSLSGGR [ZNF396] . Its protein stability index was 2.99

Note to self: protein stability index recorded for TFQEPLYPALRLWEGAISIPRLP [TRIM14] was 2.67

Form: sequence = TITEEIRDGKVISSREHVQSRPL [KRT36] ; protein stability index = 5.26

* * *

Assay: protein stability index of a GFP-peptide fusion (GPS, HEK-293T) (PSI 1-6); higher = more stable
Conditions: treatment: DMSO; c terminus: a fixed tail appended
Please respond with reported protein stability index for every item in the list.

The value of protein stability index measured for the sequence GEKEVEALKKSADWVSDWSSRPEN [BNIP3L] turned out to be 4.78

response.value for QKDSYQPPGNVYWPLRGKREAMLE [SPAG8] (field: protein stability index) = 3.58

The value of protein stability index measured for the sequence KTILGNAHDNSEELERARELKEKE [ANKRD44] turned out to be 5.62

The measured protein stability index associated with HVPEGFDPTGPAGLGRPTPGLSQG [EHMT1] reads 4.4

Reported protein stability index for CSIALLRALATSNARAQQRAAAQQ [GNAS] was 2.23

// sample FSLKQEETLDYGKNYNYGMHYCAV [NEUROD6] , its protein stability index was 2.4

Item: EVEIVGVQEHARCVHPRGGVIQSV [C18orf25] | protein stability index: 3.45

sequence FEPVKSFFKGLVEAVESTLQTPLD [TRIM14] , protein stability index observed: 2.19

Form field protein stability index, entry RGRTQLFSLNPRSGSLITAGRIDR [PCDHGA10] : 3.29

Entry AARLLFNMAGVTFRKFIPKCSKIV [DCTD] ; protein stability index = 1.97

In plain terms, MAAAVAAAPGALGSLHAGGARLVA [AUH] has a documented protein stability index of 2.8

Sample SVIVLDINDNAPTFQSSVLRVGIP [PCDHGC5] ; protein stability index observed: 2.18

Query STFSTNYRSLGSVQAPSYGARPVS [KRT18] yields protein stability index of 3.53

* * *

Experiment: protein stability index of a GFP-peptide fusion (GPS, HEK-293T) (PSI 1-6); higher = more stable
Details: treatment: MLN4924 1 uM, 8 h; c terminus: a fixed tail appended
Would you kindly list protein stability index for each of these sequences?

Consider SSVSDVKFSHSGRYMLTRDYLTVK [PPP2R2C] . Its measured protein stability index is 2.87

Reported protein stability index of KMIMDTAGNDPYCFVEFHEHRHAA [TIA1] : 3.26

protein stability index reported for this sequence VSAYVDTTADLDRKLSFSHSDHSS [SPATS1] : 4.08

protein stability index recorded for this sequence, LMRSQSPKAQPQTWKSGKQTMLSH [TRIM29] , is 3.6

The sequence listed as ILDTAGTEQFTAMRDLYMKNGQGF [RAP1B] shows protein stability index equal to 3.46

Field protein stability index (entry GIQLLIVEYKDIASIHWDWKIALL [SLC35F2] ) reads 2.69

Recorded protein stability index (sequence PYKREEEALEERRLSRGEIPTLQR [PKD2L1] ): 4.82

Documented protein stability index of EPPEEPEQCPVIDSQAPAGSLDLV [SPDEF] : 5.51

Recorded result, FKDYIQERSDPVEQGKPVIPAAVL [ETS2] , protein stability index: 3.97

Data point: PEVVQHEEFILLSQGEVEKLIKCD [KLHL12] ; protein stability index = 3.86

Form field protein stability index, entry DITPLMAAANGGHVKIVKLLLAHK [ANKRD17] : 2.33

Given item DEPCAISGKWTFQRDSKRWSRLEE [DLC1] , the value recorded as its protein stability index is 3.91

Sure, the documented protein stability index for LEAEKLVMFQRRYYKPGLLMMCFI [SCD] is 2.8

// RLRGLLRVLRGRPGAGSRRRGRMA [FBXO33] : protein stability index value = 3.14

The sequence listed as LTEQYTVTGLMEATQMMVDIDGDV [RHOBTB2] shows protein stability index equal to 4.63

Per the records, this sequence ( DNSLINQIENLNIQVEDIRIRAIL [LOXL2] ) has protein stability index equal to 2.66

Form: sequence = PASGASSIKPEASQMPPPAGGTSD [SCNN1D] ; protein stability index = 5.45

// sample LKSSGLCESLTYGLPFILRPTSCW [M1AP] , its protein stability index was 3.06

For record RLNYDRKELEKRREESQHEIKDVL [PPFIA4] the listed protein stability index is 4.76

The value of protein stability index measured for the sequence DMKSLKQVLEMKNQQIHEQEKKIL [MTUS2] turned out to be 4.31

Consider VTLIVDNTRFVVDPSIFTAQPNTM [BTBD10] . Its measured protein stability index is 3.2

For reference, reported protein stability index for RHRQEVLCKEMVPLAEQTPLTLQS [ZSCAN9] stands at 4.21

Recorded result, PSVKYLSHPRVQSGCDKEALLTGG [RNF180] , protein stability index: 4.04

Query TYKCTKQLLSERFGRGSRTVDLEL [ARFIP2] yields protein stability index of 2.33

The sequence identified as WVTFQVLLYTSLPDFCHKFLPGYV [DHCR7] registered its protein stability index at 3.01

In plain terms, RMSYGGSTCHAYSNTRDRYGRSWE [RBMY1A1] has a documented protein stability index of 2.46

Value of measured protein stability index for the entry FRQRCLERMRNSRDRLLNRYRQAG [RPAIN] : 3.2

* * *

Test: protein stability index of a GFP-peptide fusion (GPS, HEK-293T) (PSI 1-6); higher = more stable
Details: treatment: DMSO; c terminus: a fixed tail appended
PARAMETER: protein stability index
# answer = number (no unit)

The value of protein stability index measured for the sequence IGQVHEEFKQNIENVSVEMLLRKF [FCHO1] turned out to be 3.05

Query LFFTALMITVPIGLYFTTKSYIFE [VMA21] yields protein stability index of 2.73

Note to self: protein stability index recorded for LIQRWYRRYVARLEMRRRCTWSIF [PPEF2] was 2.43

Documented protein stability index of QRDEQLRALQERLGQQQRDMRRDE [FBF1] : 5.39

Note to self: protein stability index recorded for RNSGPVVEKLKQMQEFFGLKVTGK [MMP1] was 3.16

Data point: RLSVELTSSLFRTEPMAWNETADL [CTNNB1] ; protein stability index = 2.83

response.value for PSSSGHLADSDTLSSAEENEPSQA [C18orf25] (field: protein stability index) = 5.56
